ASSAY SYSTEM: Lysophosphatidic acid receptor 5 (Homo sapiens, UniProt Q9H1C0)
Sequence (Q9H1C0 whole entry): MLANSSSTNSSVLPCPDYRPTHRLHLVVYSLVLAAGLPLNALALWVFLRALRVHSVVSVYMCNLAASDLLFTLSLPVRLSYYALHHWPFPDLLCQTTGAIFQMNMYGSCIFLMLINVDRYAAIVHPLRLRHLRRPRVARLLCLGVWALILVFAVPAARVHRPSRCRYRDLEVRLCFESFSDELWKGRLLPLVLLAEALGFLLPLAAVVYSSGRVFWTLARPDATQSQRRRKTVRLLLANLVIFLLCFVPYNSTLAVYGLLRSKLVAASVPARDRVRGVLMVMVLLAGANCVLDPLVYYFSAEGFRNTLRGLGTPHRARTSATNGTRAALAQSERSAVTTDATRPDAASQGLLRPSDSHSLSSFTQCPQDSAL
EXPERIMENT: Antagonist activity at human LPA5 receptor overexpressed in CHO cells pre-incubated for 1 hr followed by LPA addition by fluorescence based FLIPR calcium assay
ENDPOINT LABEL: EC50

*Q* Quick check: EC50 of C[C@@H](OC(=O)Nc1c(-c2ccc(NC(=O)c3cnc(C(F)(F)F)nc3)cn2)nnn1C)c1cc(F)cnc1F ?
*A* > 10 µM

====

ASSAY SYSTEM: Lysophosphatidic acid receptor 1 (Homo sapiens)
Sequence (Q92633 whole entry): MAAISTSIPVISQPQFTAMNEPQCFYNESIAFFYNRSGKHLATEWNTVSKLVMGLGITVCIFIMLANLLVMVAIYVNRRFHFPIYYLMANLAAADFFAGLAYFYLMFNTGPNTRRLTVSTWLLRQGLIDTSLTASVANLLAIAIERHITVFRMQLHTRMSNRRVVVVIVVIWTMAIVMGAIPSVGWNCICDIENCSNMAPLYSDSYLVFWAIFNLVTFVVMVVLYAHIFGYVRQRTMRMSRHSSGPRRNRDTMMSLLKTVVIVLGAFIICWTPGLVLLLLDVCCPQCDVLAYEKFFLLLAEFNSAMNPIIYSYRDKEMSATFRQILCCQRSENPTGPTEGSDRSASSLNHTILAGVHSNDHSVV
EXPERIMENT: Antagonist activity at human LPA1 receptor expressed in HEK293 cells assessed as Galpha15 effector recruitment incubated for 10 mins by BRET assay
Format: functional, cell-based
ENDPOINT LABEL: pEC50
Numbers only, as −log10 of the molar value.

*Q* Quick check: pEC50 of C[C@@H](OC(=O)Nc1c(-c2ccc(NC(=O)c3cnc(C(F)(F)F)nc3)cn2)nnn1C)c1cc(F)cnc1F ?
*A* 7.34
